- System: HeLa cells
- ASSAY EXPLANATION: Antiproliferative MTT assay, HeLa
- Assay type: cell-based
- ASSAY CONTEXT: Homo sapiens, 72 h, read-out: IC50 HeLa
MEASURE: pIC50
# reply with the number alone; pIC50 is -log10 of concentration in mol/L

Qu. Hello, please tell me recorded pIC50 for this one: CCOc1ccc(-c2ncnn2-c2cc(OC)c(OC)c(OC)c2)cc1
Ans. 7.82

====

- System: HL-60 cells
- ASSAY EXPLANATION: Antiproliferative MTT assay, HL-60
- Format: cell-based
- ASSAY CONTEXT: Homo sapiens, HL-60, 72 h, read-out: IC50 HL-60
MEASURE: IC50 (nM)
Numeric answer only, unit nM assumed.

Qu. Read the entry CCOc1ccc(-c2ncnn2-c2cc(OC)c(OC)c(OC)c2)cc1 and write its reported IC50.
Ans. 20

====

- Test system: Jurkat cells
- ASSAY EXPLANATION: Antiproliferative MTT assay, Jurkat
- Format: cell-based
- ASSAY CONTEXT: Homo sapiens, 72 h, read-out: IC50 Jurkat
Listed here are molecules together with their documented pIC50.
The read-out pIC50 is expressed as -log10 of concentration in moles per litre.

> print(dat)
                                smiles.text  observed.value
1  CCOc1ccc(-c2ncnn2-c2cc(OC)c(OC)c(OC)c2)cc1            8.30

Shift focus to the following entry.
Qu. Return pIC50 for the following molecule: COc1ccc(/C=C\c2cc(OC)c(OC)c(OC)c2)cc1O
Ans. 8.30

====

- System: MCF-7 cells
- ASSAY EXPLANATION: Antiproliferative MTT assay, MCF-7
- Assay type: cell-based
- ASSAY CONTEXT: Homo sapiens, MCF7, 72 h, read-out: IC50 MCF-7
MEASURE: pIC50
Lab note — pIC50 values are minus log10 of concentrations in M.

Qu. State its pIC50 for this compound: CCOc1ccc(-c2ncnn2-c2cc(OC)c(OC)c(OC)c2)cc1 [3a]
Ans. 7.30
